# ASSAY DETAILS: xn = mol fraction of the nth substance listed, in the solute-free solvent
# STUDY CONDITIONS: 278.15 K; x2 = 0.5
Classify as follows. Reported solubility (g/100 g solution) greater than or equal to 10: True. Reported solubility (g/100 g solution) below: False.

COMPOUND: O=C1CCc2ccc(OCCCCN3CCN(c4cccc(Cl)c4Cl)CC3)cc2N1 + CCC(C)=O + CCCO
ANSWER LABEL: False

COMPOUND: CCCCOc1ccc(C(=O)CCN2CCCCC2)cc1.Cl + CO + C1CCOC1
ANSWER LABEL: True

COMPOUND: CCCCOc1ccc(C(=O)CCN2CCCCC2)cc1.Cl + CCO + O
ANSWER LABEL: True

COMPOUND: O=C1CCc2ccc(OCCCCN3CCN(c4cccc(Cl)c4Cl)CC3)cc2N1 + CCC(C)=O + CC(C)=O
ANSWER LABEL: False

COMPOUND: CCCCOc1ccc(C(=O)CCN2CCCCC2)cc1.Cl + CCO + CCCCCC
ANSWER LABEL: True

COMPOUND: O=C1CCc2ccc(OCCCCN3CCN(c4cccc(Cl)c4Cl)CC3)cc2N1 + CCC(C)=O + CCOC(C)=O
ANSWER LABEL: False

COMPOUND: CCCCOc1ccc(C(=O)CCN2CCCCC2)cc1.Cl + CCO + CCOC(C)=O
ANSWER LABEL: True

---

// reported solubility (g/100 g solution) for each item listed
# ASSAY DETAILS: xn = mol fraction of the nth substance listed, in the solute-free solvent
# STUDY CONDITIONS: 298.15 K; x2 = 0.5
READOUT LABEL: solubility (g/100 g solution)

COMPOUND: CC(=O)OC(c1ccccc1)C(Cl)(Cl)Cl (stereo not given) + CC(=O)O + O
ASSAY RESULT: 1.23

COMPOUND: COC1=CC(=O)CC(C)C12Oc1c(Cl)c(OC)cc(OC)c1C2=O (stereo not given) + CC(=O)CC(C)C + CC(C)O
ASSAY RESULT: 0.841

COMPOUND: CCCCOc1ccc(C(=O)CCN2CCCCC2)cc1.Cl + CO + C1CCOC1
ASSAY RESULT: 30.6

COMPOUND: CCCCOc1ccc(C(=O)CCN2CCCCC2)cc1.Cl + CCO + O
ASSAY RESULT: 45.1

COMPOUND: CCCCOc1ccc(C(=O)CCN2CCCCC2)cc1.Cl + CCO + CCOC(C)=O
ASSAY RESULT: 22.6

---

# ASSAY DETAILS: xn = mol fraction of the nth substance listed, in the solute-free solvent
# STUDY CONDITIONS: 313.15 K; x2 = 0.1

COMPOUND: O=C(O)c1ccc(C(=O)O)o1 + C1COCCO1 + O
solubility (g/100 g solution): 2.15

COMPOUND: COC1=CC(=O)CC(C)C12Oc1c(Cl)c(OC)cc(OC)c1C2=O (stereo not given) + CC(=O)CC(C)C + CC(C)O
solubility (g/100 g solution): 0.53

COMPOUND: O=C(O)C1CSCN1 (stereo not given) + O + CC#N
solubility (g/100 g solution): 0.0292

COMPOUND: O=C1CCc2ccc(OCCCCN3CCN(c4cccc(Cl)c4Cl)CC3)cc2N1 + CCC(C)=O + CCOC(C)=O
solubility (g/100 g solution): 2.26

COMPOUND: CCCCOc1ccc(C(=O)CCN2CCCCC2)cc1.Cl + CCO + O
solubility (g/100 g solution): 58.8

COMPOUND: O=C1CCc2ccc(OCCCCN3CCN(c4cccc(Cl)c4Cl)CC3)cc2N1 + CCC(C)=O + CCCO
solubility (g/100 g solution): 2.61

COMPOUND: O=C(O)c1ccc(C(=O)O)o1 + O + COCCOCCOC
solubility (g/100 g solution): 1.47

COMPOUND: O=C(O)c1ccc(C(=O)O)o1 + O + COCCOC
solubility (g/100 g solution): 1.5

COMPOUND: COC1=CC(=O)CC(C)C12Oc1c(Cl)c(OC)cc(OC)c1C2=O (stereo not given) + CC(C)=O + CC(C)O
solubility (g/100 g solution): 0.602

COMPOUND: O=C1CCc2ccc(OCCCCN3CCN(c4cccc(Cl)c4Cl)CC3)cc2N1 + CCC(C)=O + CC(C)=O
solubility (g/100 g solution): 3.34

COMPOUND: CCCCOc1ccc(C(=O)CCN2CCCCC2)cc1.Cl + CCO + CCCCCC
solubility (g/100 g solution): 5.97

COMPOUND: COC1=CC(=O)CC(C)C12Oc1c(Cl)c(OC)cc(OC)c1C2=O (stereo not given) + CCC(C)=O + CC(C)O
solubility (g/100 g solution): 0.543

COMPOUND: CCCCOc1ccc(C(=O)CCN2CCCCC2)cc1.Cl + CO + C1CCOC1
solubility (g/100 g solution): 9.22

COMPOUND: O=C(O)c1ccc(C(=O)O)o1 + C1CCOC1 + O
solubility (g/100 g solution): 2.08

COMPOUND: CCCCOc1ccc(C(=O)CCN2CCCCC2)cc1.Cl + CCO + CCOC(C)=O
solubility (g/100 g solution): 13.6

---

# ASSAY DETAILS: xn = mol fraction of the nth substance listed, in the solute-free solvent
# STUDY CONDITIONS: 328.15 K; x2 = 0.8
READOUT LABEL: solubility (g/100 g solution)

MOLECULE: O=C(O)c1ccc(C(=O)O)o1 + C1COCCO1 + O
ASSAY RESULT: 3.32
//
MOLECULE: CC(=O)OC(c1ccccc1)C(Cl)(Cl)Cl (configuration not stated) + CCO + O
ASSAY RESULT: 21.2
//
MOLECULE: O=C(O)c1ccc(C(=O)O)o1 + O + COCCOCCOC
ASSAY RESULT: 6.96
//
MOLECULE: O=C(O)c1ccc(C(=O)O)o1 + O + COCCOC
ASSAY RESULT: 5.83
//
MOLECULE: CC(=O)OC(c1ccccc1)C(Cl)(Cl)Cl (configuration not stated) + CC(=O)O + O
ASSAY RESULT: 33.9
//
MOLECULE: O=C(O)c1ccc(C(=O)O)o1 + C1CCOC1 + O
ASSAY RESULT: 7.11
//
MOLECULE: CC(=O)OC(c1ccccc1)C(Cl)(Cl)Cl (configuration not stated) + CC(C)O + O
ASSAY RESULT: 23.5

---

// reported solubility (g/100 g solution) for each item listed
# ASSAY DETAILS: xn = mol fraction of the nth substance listed, in the solute-free solvent
# STUDY CONDITIONS: 303.15 K; x2 = 0.3

COMPOUND: COC1=CC(=O)CC(C)C12Oc1c(Cl)c(OC)cc(OC)c1C2=O (stereo not given) + CC(C)=O + CC(C)O
solubility (g/100 g solution): 1.04

COMPOUND: CCCCOc1ccc(C(=O)CCN2CCCCC2)cc1.Cl + CCO + CCCCCC
solubility (g/100 g solution): 13.4

COMPOUND: O=C1CCc2ccc(OCCCCN3CCN(c4cccc(Cl)c4Cl)CC3)cc2N1 + CCC(C)=O + CC(C)=O
solubility (g/100 g solution): 2.46

COMPOUND: O=C1CCc2ccc(OCCCCN3CCN(c4cccc(Cl)c4Cl)CC3)cc2N1 + CCC(C)=O + CCOC(C)=O
solubility (g/100 g solution): 1.91

COMPOUND: CCCCOc1ccc(C(=O)CCN2CCCCC2)cc1.Cl + CO + C1CCOC1
solubility (g/100 g solution): 20.5

COMPOUND: CC(=O)OC(c1ccccc1)C(Cl)(Cl)Cl (stereo not given) + CC(C)O + O
solubility (g/100 g solution): 1.28

COMPOUND: O=C(O)C1CSCN1 (stereo not given) + O + CC#N
solubility (g/100 g solution): 0.0643

COMPOUND: CCCCOc1ccc(C(=O)CCN2CCCCC2)cc1.Cl + CCO + O
solubility (g/100 g solution): 49.8

COMPOUND: O=C(O)c1ccc(C(=O)O)o1 + C1COCCO1 + O
solubility (g/100 g solution): 3.8

COMPOUND: O=C(O)c1ccc(C(=O)O)o1 + C1CCOC1 + O
solubility (g/100 g solution): 5.6

---

# ASSAY DETAILS: xn = mol fraction of the nth substance listed, in the solute-free solvent
# STUDY CONDITIONS: 283.15 K; x2 = 0.1
Classify as follows. Reported solubility (g/100 g solution) greater than or equal to 0.9: criterion met. Reported solubility (g/100 g solution) below: criterion not met.

COMPOUND: O=C1CCc2ccc(OCCCCN3CCN(c4cccc(Cl)c4Cl)CC3)cc2N1 + CCC(C)=O + CCOC(C)=O
ANSWER LABEL: criterion not met

COMPOUND: COC1=CC(=O)CC(C)C12Oc1c(Cl)c(OC)cc(OC)c1C2=O (stereo unspecified) + CC(C)=O + CC(C)O
ANSWER LABEL: criterion not met

COMPOUND: CCCCOc1ccc(C(=O)CCN2CCCCC2)cc1.Cl + CCO + CCOC(C)=O
ANSWER LABEL: criterion met

COMPOUND: O=C(O)C1CSCN1 (stereo unspecified) + O + CC#N
ANSWER LABEL: criterion not met

COMPOUND: COC1=CC(=O)CC(C)C12Oc1c(Cl)c(OC)cc(OC)c1C2=O (stereo unspecified) + CCC(C)=O + CC(C)O
ANSWER LABEL: criterion not met

COMPOUND: O=C1CCc2ccc(OCCCCN3CCN(c4cccc(Cl)c4Cl)CC3)cc2N1 + CCC(C)=O + CCCO
ANSWER LABEL: criterion not met

COMPOUND: COC1=CC(=O)CC(C)C12Oc1c(Cl)c(OC)cc(OC)c1C2=O (stereo unspecified) + CC(=O)CC(C)C + CC(C)O
ANSWER LABEL: criterion not met

COMPOUND: CCCCOc1ccc(C(=O)CCN2CCCCC2)cc1.Cl + CCO + CCCCCC
ANSWER LABEL: criterion met

COMPOUND: O=C1CCc2ccc(OCCCCN3CCN(c4cccc(Cl)c4Cl)CC3)cc2N1 + CCC(C)=O + CC(C)=O
ANSWER LABEL: criterion met

COMPOUND: CCCCOc1ccc(C(=O)CCN2CCCCC2)cc1.Cl + CO + C1CCOC1
ANSWER LABEL: criterion met

COMPOUND: CCCCOc1ccc(C(=O)CCN2CCCCC2)cc1.Cl + CCO + O
ANSWER LABEL: criterion met
